// data source = paper PMC9270327

test system: SARS-CoV-2 Wuhan-Hu-1 D614G, Caco-2 cells; type: cell-based; conditions: Caco-2 cells, 2 days post infection
property label: pIC50
Please keep in mind that pIC50 is minus log10 of the molar concentration; only the number is needed.

Q: Respond only with pIC50 recorded for ace-Arg-Pro-Arg-kbt [Compound 2]
A: 4.77
